Tested on: MDA-MB-435 melanoma
Test: NCI-60 one-dose screen, 48 h
Experimental context: 10 µM unless noted
Compounds without any hit were thinned out: in the full panel of roughly 83,000, 20% have a hit. Activity calls are given as the source filed them. Rule for the calls: active = growth percent below 10; inactive = the rest.
Outcome (select one): true for active, false for inactive

Prompt line: # outcome recorded in this test, key = O=C(c1nc2ccccc2[nH]1)C1C(c2ccc(Br)cc2)C2CC3CCCC[C@H]3N2[C@@]12C(=O)Nc1cc(Cl)ccc12 (some centres not stated)
Response line: false

----------
Listed compounds paired with reported growth
System: ACHN renal
Test: NCI-60 one-dose screen, 48 h (100 = growth as untreated, 0 = no growth, -100 = all killed)
Experimental context: 10 µM unless noted
Compounds without any hit were thinned out: in the full panel of roughly 83,000, 20% have a hit.
Give the value, in units of %, as a plain number.

Compound: Oc1ccc(C(c2ccc(O)cc2)c2ccc(Br)cn2)cc1
System tested: ACHN renal
growth [%]: 21
--
Compound: COc1ccc2c(c1)oc1c(C)c3c(c(C)c12)C(=O)N(CCN1CCOCC1)C3=O
System tested: ACHN renal
growth [%]: 104
--
Compound: Cc1ccc(/C=N/NC(=O)CSc2nc3ccccc3c(=O)n2Cc2ccc(S(N)(=O)=O)cc2)cc1
System tested: ACHN renal
growth [%]: 100
--
Compound: COc1ccc(-c2nc([C@@H](C)Sc3nc(N)cc(N)n3)c(C)s2)cc1OCCN1CCOCC1
System tested: ACHN renal
growth [%]: 92.3
--
Compound: O=C(NCCNc1nccc(-c2c(-c3cccc(F)c3)nc3sccn23)n1)c1ccc(Cl)cc1
System tested: ACHN renal
growth [%]: 34.2
--
Compound: COc1cc2nc(-c3ccc(Cl)cc3)cc(OCCCN3CCCCC3)c2cc1OC
System tested: ACHN renal
growth [%]: 34

Prompt line: Return growth (reported value) for this compound: O=S(=O)(NCCNc1nccc(-c2c(-c3cccc(F)c3)nc3sccn23)n1)c1ccc(Br)cc1
Response line: 30.2

Prompt line: Return growth (reported value) for this compound: NC(=O)CSSCC(N)=O
Response line: 100

Prompt line: Return growth (reported value) for this compound: O=C(O)c1ccc(NCc2cn(-c3ccc(C(F)(F)F)cc3)nc2-c2ccc(C(=O)O)cc2)cc1
Response line: 109

Prompt line: Return growth (reported value) for this compound: Nc1n[nH]c2cccc(C#Cc3cccc(C(=O)Nc4cccc(C(F)(F)F)c4)c3)c12
Response line: 54.7

Prompt line: Return growth (reported value) for this compound: Cc1ncc(C(=O)Nc2ccc(CN3CCN(C)CC3)c(C(F)(F)F)c2)cc1C#Cc1cnc(N)cc1C#N
Response line: -100

Prompt line: Return growth (reported value) for this compound: CCCCOc1ccc(/C(C)=N/Nc2cc(C)nc3ccc(Br)cc23)cc1
Response line: 103

Prompt line: Return growth (reported value) for this compound: ClC1=C(Br)C(Br)(Br)C(=C(Br)Br)C1(Br)Br
Response line: 78.6

Prompt line: Return growth (reported value) for this compound: COc1ccc(C(=O)NNc2nc(Cl)nc(N3CCN(C(c4ccccc4)c4ccccc4)CC3)n2)cc1
Response line: 22.8

Prompt line: Return growth (reported value) for this compound: CC(=O)c1cc2c(N)c(C(=O)Nc3cccc4ccncc34)sc2nc1C
Response line: 102

Prompt line: Return growth (reported value) for this compound: O=Cc1ccc(-c2cn3ccnc3c(-c3ccc4ncn(Cc5ccccc5)c4c3)n2)cc1
Response line: 88.4

----------
System: MDA-MB-231 breast
Test: NCI-60 one-dose screen, 48 h
Experimental context: 10 µM unless noted
Compounds without any hit were thinned out: in the full panel of roughly 83,000, 20% have a hit. The source made the active and inactive calls. The calls were made as follows: active = growth percent below 10; inactive = the rest.
Outcome (select one): true for active, false for inactive

Compound: Cc1cc(Cl)nc(N(CCNc2ccnc3cc(Cl)ccc23)Cc2ccccn2)n1
Discrete label: false
--
Compound: COc1cc(C2C3CC4CCCC[C@H]4N3[C@@]3(C(=O)Nc4cc(Cl)ccc43)C2C(=O)c2nc3ccccc3[nH]2)cc(OC)c1OC (stereo partly specified)
Discrete label: false
--
Compound: Nc1nc(Nc2ccccc2SSc2ccccc2Nc2nc(N)nc(-c3cccs3)n2)nc(-c2ccsc2)n1
Discrete label: false
--
Compound: COc1cc(F)c(/C=C/c2cc(/C=C/c3cc(OC)c(OC)cc3F)on2)cc1OC
Discrete label: false
--
Compound: COc1ccccc1/C(C)=N/NC(=O)CSc1nc2ccccc2c(=O)n1Cc1ccc(S(N)(=O)=O)cc1
Discrete label: false

Kindly consider the entry below.
Prompt line: # outcome recorded in this test, key = CC(=O)OC[C@]12CC[C@@H](C(=O)CBr)[C@@H]1[C@H]1CC[C@@H]3[C@@]4(C)CC[C@H](OC(C)=O)C(C)(C)[C@@H]4CC[C@@]3(C)[C@]1(C)CC2
Response line: false

----------
System: PC-3 prostate
Test: NCI-60 one-dose screen, 48 h
Experimental context: 10 µM unless noted
The panel holds about 83,000 compounds, 20% with a hit somewhere; the sample as a whole holds those more often. Active and inactive are the calls of the source. The calls were made as follows: active = growth percent below 10; inactive = the rest.
Outcome (select one): 1 (active), 0 (inactive)

Example cases with answers are listed next.
Compound: CCCCNC(=O)Oc1ccc(/C(=C(\C)c2ccccc2)c2ccc(OCCN3CCCCC3)cc2)cc1
Discrete label: 0

Compound: CC(C)=CCC[C@](C)(O)[C@H]1CC[C@]2(C)[C@@H]1CC[C@@H]1[C@@]3(C)C/C(=C/c4ccccc4)C(=O)C(C)(C)[C@@H]3CC[C@]12C
Discrete label: 0

Compound: O=C1Nc2ccc(F)cc2/C1=C\c1c(-c2ccccc2)nc2ccccn12
Discrete label: 0

Compound: CCC(=O)Oc1ccc(/C(=C(\C)c2ccccc2)c2ccc(OCCN3CCCCC3)cc2)cc1
Discrete label: 0

Compound: COc1cc2c(c(O)c1Cl)C(=O)c1c(O)cc(C[C@H](C)O)cc1[C@H]2[C@H]1c2cc(C[C@H](C)O)cc(O)c2C(=O)c2c1cc(OC)c(Cl)c2O
Discrete label: 0

Prompt line: # outcome recorded in this test, key = c1ccc2cc(Cn3c(-c4cccc5ccccc45)[n+](Cc4ccc5ccccc5c4)c4c5ccccc5c5ccccc5c43)ccc2c1
Response line: 1

Prompt line: # outcome recorded in this test, key = CCN(CC)CCCC(C)Nc1cc(O)cc2cccnc12 (centres undefined)
Response line: 0

Prompt line: # outcome recorded in this test, key = C=CC(=O)N[C@@H](/C=C/C(=O)OCC)Cc1ccc(-c2cc(Cl)cc(Cl)c2)cc1
Response line: 0

Prompt line: # outcome recorded in this test, key = Cc1cc2c(c(C)c1Cl)C(=O)/C(=C/c1ccc(O)c(O)c1)O2
Response line: 0

----------
System: MDA-MB-435 melanoma
Test: NCI-60 one-dose screen, 48 h
Experimental context: 10 µM unless noted
Compounds without any hit were thinned out: in the full panel of roughly 83,000, 20% have a hit. Activity calls are given as the source filed them. The calls were made as follows: active = growth percent below 10; inactive = the rest.
Outcome (select one): active, inactive

Example cases with answers are listed next.
Compound: COc1ccc(N2CCN(c3ccc(NC4=C(Cl)C(=O)c5ncccc5C4=O)cc3)CC2)cc1
System tested: MDA-MB-435 melanoma
Discrete label: active

Compound: CCCCC/C=C/C(C)=C/C1CC(C)C/C=C/CCC(O)C(OC(N)=O)CCC(C)CC(O)C(C)C(=O)O1 (stereo not given)
System tested: MDA-MB-435 melanoma
Discrete label: inactive

Compound: COc1cc2nc(-c3ccc(Cl)cc3)cc(OCCCN3CCCC3)c2cc1OC
System tested: MDA-MB-435 melanoma
Discrete label: active

Compound: CCN(CC)c1ccc(/C=N/NC(=O)CSc2nc3ccccc3c(=O)n2CCc2ccc(S(N)(=O)=O)cc2)c(O)c1
System tested: MDA-MB-435 melanoma
Discrete label: inactive

Compound: O=C1Nc2cc(-c3ccc(NC(=O)c4ccccc4)cc3)ccc2/C1=C/c1ccc[nH]1
System tested: MDA-MB-435 melanoma
Discrete label: inactive

Prompt line: # outcome recorded in this test, key = CC(=O)O[C@@H]1C2CCC3C(CC[C@@]4(C)C3CC[C@@H]4C(C)N(C)C)[C@@]2(C)CC[C@@H]1NC(=O)C=C(C)C (stereo not given in full)
Response line: active

Prompt line: # outcome recorded in this test, key = N#C/C(=C\c1ccccn1)c1nc2cc(Cl)ccc2s1
Response line: inactive

Prompt line: # outcome recorded in this test, key = COc1cc(CC(=O)n2ncc3ccc(N)cc32)cc(OC)c1OC
Response line: inactive

Prompt line: # outcome recorded in this test, key = Cc1nn(-c2ccccc2)c(Oc2c(Cl)cccc2Cl)c1/C=N/N=c1\sc2ccccc2n1C
Response line: inactive

Prompt line: # outcome recorded in this test, key = CCCOC(=O)N[C@H]1CCc2cc(OC)c(OC)c(OC)c2-c2ccc(SC)c(=O)cc21
Response line: active

Prompt line: # outcome recorded in this test, key = N/C(=N\C(N)=N\c1nc2ccccc2s1)c1ccnc(Br)c1
Response line: active

Prompt line: # outcome recorded in this test, key = Cc1ccc(-n2cc(-c3ccccc3)c3c2N=NN2CCN=C32)cc1
Response line: inactive

Prompt line: # outcome recorded in this test, key = Cc1cc2nc3c4cccc(O)c4n(CCN(C)C)c3nc2cc1C
Response line: inactive

Prompt line: # outcome recorded in this test, key = Cc1ccc(/C=C(/C#N)n2nnc3cccc(F)c32)cc1
Response line: active

Hello, the source for this data is PubChem BioAssay (NCI), in case you need it.
